Reference for the values: patent US20260297042A1

molecular target: WEE1 (Homo sapiens); construct: purchased Thermo Fisher PR7373A; test: Selectivity versus WEE1 assay (ADP-Glo enzymatic assay); assay type: biochemical; conditions: fold difference in selectivity for PKMYT1 over WEE1; banded; ">N" = at least in this band but could be higher
Sequence (P30291 whole entry): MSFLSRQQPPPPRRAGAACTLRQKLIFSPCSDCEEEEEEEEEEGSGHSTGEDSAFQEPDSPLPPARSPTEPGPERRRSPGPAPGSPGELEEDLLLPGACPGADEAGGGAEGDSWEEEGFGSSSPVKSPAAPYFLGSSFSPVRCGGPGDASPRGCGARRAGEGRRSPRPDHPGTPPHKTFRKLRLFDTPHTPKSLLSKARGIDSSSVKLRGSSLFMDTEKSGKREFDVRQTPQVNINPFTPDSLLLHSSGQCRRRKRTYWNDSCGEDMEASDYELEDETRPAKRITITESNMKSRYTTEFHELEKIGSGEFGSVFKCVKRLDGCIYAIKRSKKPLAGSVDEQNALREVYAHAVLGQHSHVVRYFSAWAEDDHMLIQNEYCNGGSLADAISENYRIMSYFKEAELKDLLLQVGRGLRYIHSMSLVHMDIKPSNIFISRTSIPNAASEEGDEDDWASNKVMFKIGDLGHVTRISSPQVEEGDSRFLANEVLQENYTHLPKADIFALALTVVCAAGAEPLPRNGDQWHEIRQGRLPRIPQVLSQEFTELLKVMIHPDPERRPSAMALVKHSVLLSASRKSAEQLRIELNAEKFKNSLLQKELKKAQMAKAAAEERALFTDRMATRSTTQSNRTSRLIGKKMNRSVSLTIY
measured.metric: PKMYT1 vs. WEE1 selectivity

// worked examples, PKMYT1 vs. WEE1 selectivity included
{"compound": "Cc1ccc(O)c(C)c1NC(=O)c1cnc(Nc2ncc(C(F)(F)F)cn2)s1 [BAA-279]", "PKMYT1 vs. WEE1 selectivity": "Y (1000-5000 fold)"}
{"compound": "Cc1cn(-c2cn(C)nc2C)nc1Nc1ncc(C(=O)Nc2c(C)ccc(O)c2C)s1 [BAA-392]", "PKMYT1 vs. WEE1 selectivity": "X (100-<1000 fold)"}
{"compound": "Cc1ccc(O)c(C)c1NC(=O)c1cnc(NCCCN2CCS(=O)(=O)CC2)s1 [BAA-072]", "PKMYT1 vs. WEE1 selectivity": ">X (100-<1000 fold)"}
{"compound": "Cc1ccc(O)c(C)c1NC(=O)c1cnc(Nc2ccn(CC(=O)N3CC4(CCC4)C3)n2)s1 [BAA-199]", "PKMYT1 vs. WEE1 selectivity": "Y (1000-5000 fold)"}
{"compound": "Cc1ccc(O)c(C)c1NC(=O)c1cnc(NCCNC(=O)OC(C)(C)C)s1 [BAA-068]", "PKMYT1 vs. WEE1 selectivity": ">X (100-<1000 fold)"}
{"compound": "Cc1cc(Nc2ncc(C(=O)Nc3c(C)ccc(O)c3C)s2)nc(OCC(F)(F)F)n1 [BAA-319]", "PKMYT1 vs. WEE1 selectivity": "Y (1000-5000 fold)"}

Ask: Which PKMYT1 vs. WEE1 selectivity reading was recorded for the compound Cc1ccc(O)c(C)c1NC(=O)c1cnc(Nc2ccn([C@@H]3CCN(C(=O)Cc4ccccc4F)C3)n2)s1 [BAA-095] ?
Result: >Y (1000-5000 fold)

Ask: Which PKMYT1 vs. WEE1 selectivity reading was recorded for the compound CCN(CC)C(=O)N1CC[C@@H](n2ccc(Nc3ncc(C(=O)Nc4c(C)ccc(O)c4C)s3)n2)C1 [BAA-112] ?
Result: >Y (1000-5000 fold)

Ask: Which PKMYT1 vs. WEE1 selectivity reading was recorded for the compound Cc1ccc(O)c(C)c1NC(=O)c1cnc(Nc2ccn(CC(=O)N3CCN(CC(F)(F)F)CC3)n2)s1 [BAA-184] ?
Result: >X (100-<1000 fold)
